test: small-molecule microarray binders of probe aWnt5a, primary screen, biochemical, biotinylated probe, 635/667 nm fluorescence (AID 1113); settings: higher = more signal;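 also: score merges 667 nm fluorescence intensity with signal-to-noise per printed feature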
Recorded composite z-score for the following compounds

{"compound": "C[C@@H]1ON(c2ccc(C(=O)OC(C)(C)C)cc2)[C@H](c2ccc(O)cc2)[C@H]1C(=O)N1C(=O)OC[C@H]1Cc1ccccc1", "composite z-score": 0.0215}
{"compound": "CC1CC/C=C\\[C@H]2OC34C=CCN(C(C)C)C(=O)[C@H]3N(CCCCCCO)C(=O)[C@@H]4C2C(=O)O1 (stereo partly drawn)", "composite z-score": -0.15}
{"compound": "NC(=O)NCC#Cc1ccc2c(c1)[C@]1(C(=O)N2)[C@H](C(=O)O)[C@H]2C(=O)O[C@H](c3ccccc3)[C@H](c3ccccc3)N2[C@@H]1c1ccc(OCCO)cc1", "composite z-score": 0.0077}

----------
experiment: binders of probe aFGF2 on microarray, primary screen, stem cell growth factor project, biochemical, small-molecule microarray, fluorescence 635/667 (AID 1067); conditions: higher = more signal;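 also: measures binding of biotinylated aFGF2 protein to printed compounds on slides; z-score merges feature fluorescence and signal-to-noise across triplicate slides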
Recorded composite z-score for the following compounds
readout: composite z-score

{"compound": "C=C(/C(=C/C[C@H](OC(C)=O)c1cccc(OCCO)c1)c1cnc2ccccc2c1)C(C)C", "result": -0.108}
{"compound": "O=C1c2ccccc2[C@](Cc2ccccc2I)(C(=O)NCC(F)(F)F)[C@H](c2ccc(CO)cc2)N1C1CCCCC1", "result": 0.0772}
{"compound": "COc1ccc([Si](C)(C)[C@@H]2[C@@H](CC(=O)N(CCO)Cc3ccccc3)O[C@]3(C(=O)N(Cc4cccc(N5C(=O)c6cccc7cccc5c67)c4)c4ccccc43)[C@H]2C)cc1", "result": -0.105}
{"compound": "CN(C)C(=O)[C@@]1(Cc2ccccc2CN=[N+]=[N-])N=C(c2ccc(OCCCO)cc2)O[C@H]1c1ccccc1CN=[N+]=[N-]", "result": 0.222}
{"compound": "CC(C)(C)N1CC=CC23O[C@@H]4C=CCCOC(=O)C4[C@H]2C(=O)N(CCO)[C@@H]3C1=O (some centres not stated)", "result": -0.132}
{"compound": "CC(CO)N1C(=O)[C@@H]2[C@H]3C(=O)OCC=C[C@H]3OC23C=CCN(CCN2CCOCC2)C(=O)[C@@H]13 (some centres not stated)", "result": -0.203}
{"compound": "C=C(C(=O)CC[C@@H](OC(C)=O)c1ccc(CO)o1)C(C)C", "result": -0.08}

----------
biological target: Dihydroorotate dehydrogenase (quinone), mitochondrial (Plasmodium falciparum (isolate 3D7)) (UniProt Q08210); experiment: PfDHODH enzyme inhibitors, primary screen, biochemical, C-terminal His tag, absorbance 600 nm (AID 1175); details: DCIP absorbance 600 nm, higher = more signal, called active from +8 up or from −8 down;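 also: recombinant parasite enzyme with a five histidine tag at its C terminus; test concentration not given here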
Sequence (Q08210 whole entry, looked up): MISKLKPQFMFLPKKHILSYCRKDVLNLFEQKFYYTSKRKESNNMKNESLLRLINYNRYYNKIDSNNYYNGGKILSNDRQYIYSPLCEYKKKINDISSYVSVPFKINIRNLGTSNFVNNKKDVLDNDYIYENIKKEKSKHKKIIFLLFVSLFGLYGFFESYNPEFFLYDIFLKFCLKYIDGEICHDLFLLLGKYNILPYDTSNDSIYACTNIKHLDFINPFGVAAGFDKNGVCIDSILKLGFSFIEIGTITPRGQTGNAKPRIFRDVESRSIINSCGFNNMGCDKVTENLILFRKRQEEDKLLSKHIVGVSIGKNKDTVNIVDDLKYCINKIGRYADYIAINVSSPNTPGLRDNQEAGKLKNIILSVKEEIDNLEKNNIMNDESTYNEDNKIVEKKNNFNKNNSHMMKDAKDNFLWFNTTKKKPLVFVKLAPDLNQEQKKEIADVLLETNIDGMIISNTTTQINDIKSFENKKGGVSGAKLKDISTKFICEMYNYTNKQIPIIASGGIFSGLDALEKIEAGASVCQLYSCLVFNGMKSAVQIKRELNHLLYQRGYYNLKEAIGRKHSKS
Cut-off -0.7 on composite z-score, inclusive. At or above means met; below means not met.

{"molecule": "O=C1C2C=CC(C(O)c3ccccc3)N(Nc3ccccc3F)C2C(=O)N1c1ccccc1 (stereo not given)", "label": "met"}
{"molecule": "COc1cccc(/C=C/C=O)c1", "label": "met"}
{"molecule": "C=C(CCCC)/C(=C/C[C@@H](OC(=O)c1ccncc1)c1ccccc1OCCO)c1cnc2ccccc2c1", "label": "not met"}
{"molecule": "C=C(C(=O)CC[C@@H](OC(C)=O)c1ccc(CO)o1)C(C)C", "label": "not met"}
{"molecule": "O=C1O[C@H](c2ccccc2)[C@H](c2ccccc2)N2[C@H]1[C@@H](C(=O)NC[C@H](O)c1ccccc1)[C@]1(C(=O)Nc3ccc(C#CCCO)cc31)[C@H]2c1ccc(OCCO)cc1", "label": "not met"}
{"molecule": "COc1ccccc1CN1C(=O)c2ccccc2[C@](Cc2ccccc2I)(C(=O)NCC(F)(F)F)[C@@H]1c1ccc(CO)cc1", "label": "met"}
{"molecule": "C=CCC(OC(C)=O)[C@@H]1[C@@H](N(Cc2cc3ccccc3o2)C(=O)c2ccc(C)cc2)c2cc(OCCCO)ccc2N1C(=O)Cc1ccc(OC)cc1 (stereo not given in full)", "label": "met"}
{"molecule": "COc1ccc([Si](C)(C)[C@@H]2[C@@H](CC(=O)N3Cc4ccccc4C[C@H]3CO)O[C@]3(C(=O)N(Cc4cccc(N5C(=O)c6cccc7cccc5c67)c4)c4ccccc43)[C@H]2C)cc1", "label": "not met"}
{"molecule": "CN1C(=O)C2C=CC(C(O)c3ccccn3)N(N(c3ccccc3)c3ccccc3)C2C1=O (stereo not given)", "label": "met"}
{"molecule": "COC(=O)c1c2oc(c1C(=O)OC)C(=O)N(Cc1ccccc1)Cc1cn(nn1)C[C@H](Cc1ccccc1)NC(=O)N[C@H](CO)CC2", "label": "met"}
{"molecule": "O=C1O[C@@H](c2ccccc2)[C@@H](c2ccccc2)N2[C@@H](c3ccc(O)cc3)[C@]3(C(=O)Nc4ccc(C#CC5(O)CCCCCC5)cc43)[C@@H](C(=O)NC[C@H](O)c3ccccc3)[C@H]12", "label": "met"}
{"molecule": "C=C(C)c1cc2c(c(CCCCCC)n1)[Si](C(C)C)(C(C)C)OC2", "label": "met"}
{"molecule": "C=C(/C(=C/C[C@H](OC(=O)c1ccncc1)c1ccc(CO)o1)c1cc(C(=O)OC)ccc1OC)C(C)C", "label": "not met"}
{"molecule": "COc1cc2c(cc1OC)CN(C(=O)[C@@H]1[C@H]3C(=O)O[C@H](c4ccccc4)[C@H](c4ccccc4)N3[C@H](c3ccc(OCCO)cc3)[C@@]13C(=O)Nc1ccc(C#CC4(O)CCCCCC4)cc13)CC2", "label": "not met"}
{"molecule": "CC(CO)N1C(=O)[C@@H]2[C@H]3C(=O)OCC=C[C@H]3OC23C=CCN(Cc2ccccc2)C(=O)[C@@H]13 (stereo not given in full)", "label": "not met"}

----------
assay: small-molecule microarray binders of probe aEGFR, primary screen, biochemical, biotinylated probe, 635/667 nm fluorescence (AID 1097); conditions: higher = more signal;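 also: probe is a biotinylated anti-EGFR antibody binding compounds printed on slides; score combines fluorescence near 667 nm and signal to noise of each spot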
Recorded composite z-score for the following compounds
readout: composite z-score

{"compound": "[N-]=[N+]=Nc1ccccc1[C@@H]1OC(c2ccc(OCCCO)cc2)=N[C@]1(Cc1ccccc1)C(=O)NCC(O)CO (some centres not stated)", "number": 0.206}
{"compound": "C=CCC(OC(C)=O)[C@@H]1[C@@H](N(Cc2ccc(-c3ccccc3)cc2)C(=O)Cc2ccc(F)cc2)c2cc(OCCCO)ccc2N1C(=O)Cc1ccc(OC)cc1 (some centres not stated)", "number": -0.204}
{"compound": "CO[C@H]1O[C@H](CO)[C@@H](OC(=O)Nc2ccccc2-c2ccccc2)[C@H](OC(=O)Nc2ccc3c(c2)OCO3)[C@H]1OC(=O)Nc1ccc2c(c1)OCO2", "number": 0.0115}
{"compound": "CC(C)(C)OC(=O)CC[C@]1(C(=O)NCc2ccccc2)N=C(c2ccc(OCCCO)cc2)O[C@H]1c1ccccc1CN=[N+]=[N-]", "number": 0.134}
{"compound": "COCCOC(=O)N1C(=O)[C@@]2(c3cc(C#CC4=CCCCC4)ccc31)[C@H](c1ccc(OCCO)cc1)N1[C@H](c3ccccc3)[C@H](c3ccccc3)OC(=O)[C@H]1[C@@H]2C(=O)NC[C@H](O)c1ccccc1", "number": 0.108}
{"compound": "CCCCCCCCCCC(O)C1C=CC2C(=O)N(C)C(=O)C2N1NC(=O)OC(C)(C)C (configuration not stated)", "number": -0.128}
{"compound": "CCOC(=O)C[C@H]1[C@H](OC(=O)Cc2ccc3c(c2)OCO3)[C@@H](NC(=O)Cc2ccc(OC)cc2)c2cc(OCCCO)ccc2N1C(=O)c1ccc2ccccc2n1", "number": -0.146}
{"compound": "COCCOC(=O)N1C(=O)[C@@]2(c3cc(C#CCNC(N)=O)ccc31)[C@H](C(=O)N1CCc3cc(OC)c(OC)cc3C1)[C@H]1C(=O)O[C@H](c3ccccc3)[C@H](c3ccccc3)N1[C@@H]2c1ccccc1OCCO", "number": -0.0734}
{"compound": "Cc1ccc(S[C@]2(C(=O)NCC(F)(F)F)CC(=O)N(Cc3ccccc3)[C@@H]2c2ccc(CO)cc2I)cc1", "number": -0.118}
{"compound": "[N-]=[N+]=Nc1ccccc1C[C@]1(C(N)=O)N=C(c2ccc(OCCCO)cc2)O[C@H]1c1ccccc1N=[N+]=[N-]", "number": 0.701}
{"compound": "C=C(C)[C@@H]1CC=C(C(O)C2C=CC3C(=O)N(c4ccccc4)C(=O)C3N2Nc2ccccc2F)CC1 (some centres not stated)", "number": 0.11}
{"compound": "CCOC(=O)C[C@H]1[C@H](OC(=O)c2cc3ccccc3oc2=O)[C@@H](NC(=O)Cc2ccc(OC)cc2)c2cc(OCCCO)ccc2N1C(=O)c1ccc2ccccc2n1", "number": -0.0241}
{"compound": "C=C(/C(=C/C[C@H](OC(=O)c1ccncc1)c1ccc(CO)o1)c1cc(C(=O)OC)ccc1OC)C(C)C", "number": -0.0902}
{"compound": "O[C@@H](Cc1ccccc1)[C@@H](/C=C/C1CC1)N(CC#Cc1ccccc1)Cc1cccc(Cl)c1", "number": -0.398}
{"compound": "CC(=O)NCCCC[C@@H]1NC(=O)[C@H]2C[C@@H](C(=O)NCCCC[N+](C)(C)C)[C@@H](c3cccc(OCCO)c3)N2C1=O", "number": 0.162}
{"compound": "COCCCNC(=O)[C@]1(CCS(=O)(=O)c2ccccc2)N=C(c2ccc(OCCCO)cc2)O[C@@H]1c1ccccc1N=[N+]=[N-]", "number": 0.287}
{"compound": "Cc1ccc(S[C@]2(C(=O)O)CC(=O)N(Cc3ccccc3Cl)[C@@H]2c2ccc(CO)cc2I)cc1", "number": 0.519}
{"compound": "CC(CO)N1C(=O)[C@@H]2[C@H]3C(=O)OCC=C[C@H]3OC23C=CCN(CCN2CCOCC2)C(=O)[C@@H]13 (some centres not stated)", "number": -0.0828}
{"compound": "C[C@H]1NC(=O)[C@@]23C(=O)N[C@@H](Cc4ccccc4)C2[C@H](C)[C@@]2(C)O[C@H]2C3/C=C/C/C=C\\CNC(=O)[C@H](Cc2ccccc2)NC1=O (some centres not stated)", "number": -0.096}
{"compound": "CC1=C([C@H](O)CCc2ccccc2)[C@H](CO)[C@@H]2C(=O)N(C)C(=O)[C@@H]2C1", "number": -0.154}
{"compound": "C[N+](C)(C)CCCC[C@@H]1NC(=O)[C@H]2C[C@@H](C(=O)NCCCCCCN)[C@@H](c3ccc(O)cc3)N2C1=O", "number": 0.155}
{"compound": "C=CCN1C(=O)[C@@]2(CCS(=O)(=O)c3ccccc3)N=C(c3ccc(OCCCO)cc3)O[C@H]2c2ccccc21", "number": 0.154}
{"compound": "O=C1C[C@@](C(=O)NCCN2CCOCC2)(c2ccc([N+](=O)[O-])cc2)[C@@H](c2ccc(CO)cc2I)N1C1CCCCC1", "number": -0.0963}
{"compound": "CC(C)C[C@@H]1NC(=O)[C@@H]2C[C@H](C(=O)NCCCCN(C)C)[C@H](c3cccc(OCCO)c3)N2C1=O", "number": -0.183}
{"compound": "CCOC(=O)C[C@H]1[C@H](OC(=O)Cc2ccc3c(c2)OCO3)[C@@H](NC(=O)CC(C)C)c2cc(OCCCO)ccc2N1C(=O)Cc1ccc(OC)cc1", "number": -0.111}
{"compound": "C=CCOC(=O)[C@H]1[C@@H]2C(=O)O[C@@H](c3ccccc3)[C@@H](c3ccccc3)N2[C@@H](c2ccc(OCCOC(=O)[C@@H]3C[C@@H]4C(=O)N[C@@H](CCCCNC(C)=O)C(=O)N4[C@@H]3c3ccc(O)cc3)cc2)[C@]12C(=O)Nc1ccc(I)cc12", "number": 0.117}
{"compound": "COc1cc(OC)c(C(O)C2C=CC3C(=O)N(c4ccccc4)C(=O)C3N2Nc2ccccc2)cc1Br (configuration not stated)", "number": -0.0828}
